Entries with reported pIC50 on Beta-lactamase (Escherichia coli K-12, UniProt P00811)
Sequence (P00811 whole entry): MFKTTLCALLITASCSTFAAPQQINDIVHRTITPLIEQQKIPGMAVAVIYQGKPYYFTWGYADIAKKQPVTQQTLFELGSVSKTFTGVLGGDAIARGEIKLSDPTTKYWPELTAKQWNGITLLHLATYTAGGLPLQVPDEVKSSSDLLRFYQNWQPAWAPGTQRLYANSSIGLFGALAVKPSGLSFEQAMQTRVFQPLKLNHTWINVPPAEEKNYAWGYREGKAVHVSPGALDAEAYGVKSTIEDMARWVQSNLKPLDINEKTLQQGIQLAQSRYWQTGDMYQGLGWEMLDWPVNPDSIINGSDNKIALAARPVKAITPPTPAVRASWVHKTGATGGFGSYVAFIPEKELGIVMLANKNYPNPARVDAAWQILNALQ
The scale used: pIC50 is minus the common logarithm of the concentration in molar units.

Give recorded pIC50 with Beta-lactamase (Escherichia coli K-12, UniProt P00811) for the following molecule: `Clc1ccccc1C(c1ccccc1)(c1ccccc1)n1ccnc1` 3.82

Entry to check: `O=C(Nc1ccc(Oc2ccc(NC(=O)c3ccco3)c(NC(=O)c3ccco3)c2)cc1)c1ccco1` 4.40

Entry to check: Clc1ccc(CSC(Cn2ccnc2)c2ccc(Cl)cc2Cl)cc1 (stereo not given) 4.00

Entry to check: `O=c1[nH]c2cc(Cl)ccc2c(O)c1-c1cccc(Oc2ccccc2)c1` 3.90

Entry to check: `Cc1cc2c(C(C)C)c(O)c(O)c(C=O)c2c(O)c1-c1c(C)cc2c(C(C)C)c(O)c(O)c(C=O)c2c1O` 4.09
